The origin of these recorded values is PubChem BioAssay AID1963848.

# Tested on: 379773-124-R-J2-PDC spheroid viability;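 further: spheroids exposed to drugs for seven days before readout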
# TEST_NAME: Anticancer human tumor 379773-124-R-J2-PDC patient-derived endometrial carcinoma cell line growth inhibition [POLQ]; active means viability on the fitted dose curve at most 10% of control; inactive means the rest
# EXPERIMENTAL_SETUP: second compound 0.1 µM; first compound 0.1 µM; spheroids with HUVEC and MSC
Would you mind answering with one of these outcomes? active, inactive

I would be grateful if you could indicate the recorded call for COc1ccc([C@@H](O)c2cc(-c3ncnc4cc(N5CCOCC5)ccc34)c(F)cc2Cl)nn1 + Nc1ccc(C#CCN(C(=O)Cc2ncc(C(F)(F)F)cc2C(F)(F)F)c2ccc(F)cc2)nn1 . inactive

What do you have for O=C(c1cc(Cc2n[nH]c(=O)c3ccccc23)ccc1F)N1CCN(C(=O)C2CC2)CC1 + COC1C(OC(N)=O)C(O)C(Oc2ccc3c(O)c(NC(=O)c4ccc(O)c(CC=C(C)C)c4)c(=O)oc3c2C)OC1(C)C ? inactive

What do you have for Nc1ccn(C2OC(CO)C(O)C2(F)F)c(=O)n1 (stereo not given) + Cc1cccc(N(C)C(=O)C2C(O)CCN2c2nc(C)cc(C(F)(F)F)c2C#N)c1 ? inactive

What do you have for COc1cc2cc(C(=O)CCC(=O)O)sc2cc1OC + COC1C(OC(N)=O)C(O)C(Oc2ccc3c(O)c(NC(=O)c4ccc(O)c(CC=C(C)C)c4)c(=O)oc3c2C)OC1(C)C ? inactive

What do you have for Nc1ccn(C2OC(CO)C(O)C2(F)F)c(=O)n1 (stereo not given) + COC1C(OC(N)=O)C(O)C(Oc2ccc3c(O)c(NC(=O)c4ccc(O)c(CC=C(C)C)c4)c(=O)oc3c2C)OC1(C)C ? active
